Biological target: Delta-5-Desaturase (D5D) (Homo sapiens (Human), UniProt O60427)
Sequence (O60427 whole entry, species assumed): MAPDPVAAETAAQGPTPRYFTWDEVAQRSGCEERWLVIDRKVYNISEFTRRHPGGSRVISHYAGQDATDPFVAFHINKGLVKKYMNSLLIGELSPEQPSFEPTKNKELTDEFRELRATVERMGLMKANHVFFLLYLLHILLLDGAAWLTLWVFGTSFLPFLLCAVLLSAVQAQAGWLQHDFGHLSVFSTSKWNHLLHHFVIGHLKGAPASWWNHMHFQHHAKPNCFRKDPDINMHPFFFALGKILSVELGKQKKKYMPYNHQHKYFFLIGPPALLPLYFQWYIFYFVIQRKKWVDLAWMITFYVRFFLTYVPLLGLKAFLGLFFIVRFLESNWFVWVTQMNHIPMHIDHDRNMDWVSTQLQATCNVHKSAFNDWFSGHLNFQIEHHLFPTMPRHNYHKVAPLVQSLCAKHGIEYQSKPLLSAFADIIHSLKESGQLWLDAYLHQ
Experiment: In vitro measurement of Delta-5-Desaturase inhibitory activity using DGLA-CoA and Arachidonyl-CoA mass spectrometric assays
Details: membrane preparations of D5D-overexpressing HEK293 6E cells; averaged over at least two independent runs
Procedure: In vitro Measurement of Delta-5-Desaturase Inhibitory Activity using DGLA-CoA and Arachidonyl-CoA Mass Spectrometric Assays Membrane preparations of D5D-overexpressing HEK293 6E cells were prepared in which the total protein concentration was 5.6 mg/mL. […] DGLA-CoA and Arachidonyl-CoA were detected by multiple reaction monitoring (MRM) of the doubly charged parent ions at m/z 526.6 and 525.6, respectively. […]
Exercise: for every item that follows, state its recorded pIC50.
# log scale: pIC50 equals minus log10 of the concentration in mol/L

Given the molecule COc1cc2nc(C(F)(F)F)c(-c3cnn(CCC(F)(F)F)c3)c(=O)n2cc1Cl , what is its reported pIC50?
6.95

Do the same for COc1ccn2c(=O)c(-c3cnn(CC(F)(F)C(F)(F)F)c3)c(C(F)(F)F)nc2n1 please
7.51

Do the same for O=c1c(-c2cnn(CC(F)(F)C(F)(F)F)c2)c(C(F)(F)F)nc2cc(CO)ccn12 please
7.62

Do the same for CS(=O)(=O)c1ccn2c(=O)c(-c3ccc(OCC(F)(F)F)cc3)c(C(F)(F)F)nc2c1 please
5.00

Do the same for COc1ccn2c(=O)c(-c3cnn(CC4CC(F)(F)C4)c3)c(C(F)(F)F)nc2c1 please
8.34

Do the same for Cc1cc2nc(C(F)(F)F)c(-c3cnn(CC(F)(F)C(F)(F)F)c3)c(=O)n2cc1F please
7.72

Do the same for COc1ccn2c(=O)c(-c3cnn(-c4ccc(C(F)(F)F)cc4)c3)c(C(F)(F)F)nc2c1 please
5.31

Do the same for COCc1ccn2c(=O)c(-c3cnn(CC(F)(F)C(F)(F)F)c3)c(C(F)(F)F)nc2c1 please
6.79

Do the same for Cc1cnn2c(=O)c(-c3cnn(CC4CC4(F)F)c3)c(C(F)(F)F)nc2c1 (stereo not shown) please
6.43

Do the same for COc1ccn2c(=O)c(-c3ccc(OCC(F)(F)F)cc3C)c(C(F)(F)F)nc2c1 please
7.66

Do the same for Cc1cc2nc(C(F)(F)F)c(-c3ccc(OCC(F)(F)F)cc3)c(=O)n2cc1Cl please
6.62

Do the same for O=c1c(-c2ccc(OCC(F)(F)F)cc2F)c(C(F)(F)F)nc2ccccn12 please
7.90

Do the same for CN(C)C(=O)c1ccn2c(=O)c(-c3ccc(OCC(F)(F)F)cc3)c(C(F)(F)F)nc2c1 please
5.60

Do the same for Cc1cn2c(=O)c(-c3cnn(CC(F)(F)C(F)(F)F)c3)c(C(F)(F)F)nc2cn1 please
7.55

Do the same for COc1ccn2c(=O)c(-c3cnn(CCC(F)(F)F)c3)c(C(F)(F)F)nc2c1 please
7.82

Do the same for COc1ccn2c(=O)c(-c3ccc(OC(F)(F)F)cc3)c(C(F)(F)F)nc2c1 please
8.27

====

molecular target: Delta-5-Desaturase (D5D) (Homo sapiens (Human)); assay: In vitro measurement of Delta-5-Desaturase inhibitory activity using DGLA-CoA and Arachidonyl-CoA mass spectrometric assays; settings: membrane preparations of D5D-overexpressing HEK293 6E cells; averaged over at least two independent runs
Exercise: for every item that follows, state its recorded pIC50.
# log scale: pIC50 equals minus log10 of the concentration in mol/L

Given the molecule CNc1ccn2c(=O)c(-c3cnn(CC(F)(F)C(F)(F)F)c3)c(C(F)(F)F)nc2c1 [Example 1-23] , what is its reported pIC50?
7.70

Do the same for N#Cc1ccn2c(=O)c(-c3cnn(CC(F)(F)C(F)(F)F)c3)c(C(F)F)nc2c1 [Example 1-85] please
6.83

Do the same for CCCc1ccc(-c2c(C(F)(F)F)nc3cc(OC)ccn3c2=O)cn1 [Example 7-6] please
6.52

Do the same for CCc1nc2cc(OC)ccn2c(=O)c1-c1ccc(OCC(F)(F)F)nc1 [Example 1-60] please
7.42

====

molecular target: Delta-5-Desaturase (D5D) (Homo sapiens (Human)); test: In vitro measurement of Delta-5-Desaturase inhibitory activity using DGLA-CoA and Arachidonyl-CoA mass spectrometric assays; settings: membrane preparations of D5D-overexpressing HEK293 6E cells; averaged over at least two independent runs
observationType: log10(IC50) (log10 of the value in nM)
Heads up, the numbers here are log10 of IC50 in nM units.

Given the molecule O=c1ccn2c(=O)c(-c3cnn(CC(F)(F)C(F)(F)F)c3)c(C(F)(F)F)nc2[nH]1 , what is its reported log10(IC50)?
1.84

Do the same for COc1cnn2c(=O)c(-c3cnn(CC4CC(F)(F)C4)c3)c(C(F)(F)F)nc2c1 please
2.87

Do the same for COc1ccn2c(=O)c(-c3ccc(OCC4CC4)cc3)c(C(F)(F)F)nc2c1 please
0.71

Do the same for CN1CCn2c(nc(C(F)(F)F)c(-c3cnn(CC(F)(F)C(F)(F)F)c3)c2=O)C1 please
2.73

Do the same for COc1ccn2c(=O)c(-c3ccc(O[C@@H](C)C#N)cc3)c(C(F)(F)F)nc2c1 please
1.06

Do the same for O=c1ccn2c(=O)c(-c3ccc(OCC(F)(F)F)cc3)c(C(F)(F)F)[nH]c2c1 please
1.64

Do the same for COc1ccc2nc(C(F)(F)F)c(-c3cnn(CC(F)(F)C(F)(F)F)c3)c(=O)n2n1 please
4.65

Do the same for [2H]C([2H])([2H])Oc1ccn2c(=O)c(-c3ccc(OCC(F)(F)F)cc3)c(C(F)(F)F)nc2n1 please
1.16

Do the same for COc1ccn2c(=O)c(-c3ccc(O[C@H](C)C#N)cc3)c(C(F)(F)F)nc2c1 please
2.75

Do the same for COCc1ccc2nc(C(F)(F)F)c(-c3cnn(CC(F)(F)C(F)(F)F)c3)c(=O)n2c1 please
3.18

Do the same for COc1cc2nc(C(F)(F)F)c(-c3cnn(CC(F)(F)C(F)(F)F)c3)c(=O)n2cc1Cl please
1.94

Do the same for COc1ccn2c(=O)c(-c3ncc(OCC(F)(F)F)s3)c(C(F)(F)F)nc2c1 please
3.06

Do the same for COc1ccn2c(=O)c(-c3ccc(CC#N)cc3)c(C(F)(F)F)nc2c1 please
2.48

Do the same for COc1cnn2c(=O)c(-c3cnc(OCC(F)(F)F)nc3)c(C(F)(F)F)nc2c1 please
2.00

Do the same for O=c1c(-c2cnn(-c3ccc(F)cc3)c2)c(C(F)(F)F)nc2ccccn12 please
1.56

====

molecular target: Delta-5-Desaturase (D5D) (Homo sapiens (Human)); assay: In vitro measurement of Delta-5-Desaturase inhibitory activity using DGLA-CoA and Arachidonyl-CoA mass spectrometric assays; details: membrane preparations of D5D-overexpressing HEK293 6E cells; averaged over at least two independent runs
observationType: pIC50
# log scale: pIC50 equals minus log10 of the concentration in mol/L

Given the molecule O=c1c(-c2cnn(CC(F)(F)C(F)(F)F)c2)c(C(F)(F)F)nc2cc(OCCl)cnn12 , what is its reported pIC50?
6.92

Do the same for C[C@H](O)c1ccn2c(=O)c(-c3ccc(OCC(F)(F)F)cc3)c(C(F)(F)F)nc2c1 please
7.13

Do the same for COc1cc2nc(C(F)(F)F)c(-c3cnn(CC(F)(F)C(F)(F)F)c3)c(=O)n2cn1 please
8.20

Do the same for C[C@@H](O)c1ccn2c(=O)c(-c3ccc(OCC(F)(F)F)cc3)c(C(F)(F)F)nc2c1 please
6.95

Do the same for COc1ccn2c(=O)c(-c3cnc(OCC(F)(F)F)c(F)c3)c(C(F)(F)F)nc2c1 please
5.39

Do the same for COc1ccn2c(=O)c(-c3cc(CC(F)(F)C(F)(F)F)no3)c(C(F)(F)F)nc2c1 please
7.13

Do the same for [2H]C([2H])([2H])c1ccn2c(=O)c(-c3ccc(OCC(F)(F)F)cc3)c(C(F)(F)F)nc2c1 please
8.41

Do the same for COc1ccn2c(=O)c(-c3cnn(CC(F)(F)F)c3)c(C(F)(F)F)nc2c1 please
7.56

====

Target: Delta-5-Desaturase (D5D) (Homo sapiens (Human))
Assay: In vitro measurement of Delta-5-Desaturase inhibitory activity using DGLA-CoA and Arachidonyl-CoA mass spectrometric assays
Details: membrane preparations of D5D-overexpressing HEK293 6E cells; averaged over at least two independent runs
Method: In vitro Measurement of Delta-5-Desaturase Inhibitory Activity using DGLA-CoA and Arachidonyl-CoA Mass Spectrometric Assays Membrane preparations of D5D-overexpressing HEK293 6E cells were prepared in which the total protein concentration was 5.6 mg/mL. […] DGLA-CoA and Arachidonyl-CoA were detected by multiple reaction monitoring (MRM) of the doubly charged parent ions at m/z 526.6 and 525.6, respectively. […]
observationType: pIC50
# log scale: pIC50 equals minus log10 of the concentration in mol/L

Given the compound CC(=O)Nc1ccn2c(=O)c(-c3cnn(CC(F)(F)C(F)(F)F)c3)c(C(F)(F)F)nc2c1 [Example 1-82] , what is its reported pIC50?
7.25

Do the same for O=c1c(-c2ccc(OCC(F)(F)F)cc2)c(C(F)(F)F)nc2cc(CF)ccn12 [Example 13-4] please
8.03

Do the same for COc1cc2nc(C(F)(F)F)c(-c3cnn(CCC(F)(F)F)c3)c(=O)n2cc1F [Example 39-58] please
7.69

Do the same for O=c1c(-c2ccc(OCC(F)(F)F)cc2)c(C(F)(F)F)nc2cc(CO)ccn12 [Example 13-3] please
8.25
